- Experiment notes: Reducing power assay (FRAC, Fe3+ to Fe2+)
- Test context: 0-1 mg/mL, absorbance 700 nm
Exercise: for every item that follows, state its recorded EC50.
Dear colleague, please send the value followed by its unit.

Prompt line: What value of measured EC50 is listed for COc1ccc(C2C(C#N)=C(N)OC(C)=C2C(=O)OCc2ccccc2)cc1 (stereo not shown) ?
Response line: 74 µM

Prompt line: Cool, now CC1=C(C(=O)OCc2ccccc2)C(c2ccc(C#N)cc2)C(C#N)=C(N)O1 (stereo not shown)
Response line: 1560 µM

Prompt line: Likewise for Cc1[nH]nc2c1C(c1cccc(O)c1Cl)C(C#N)=C(N)O2 (stereo not shown) ?
Response line: 363 µM

Prompt line: What do you get for Cc1cc(C(C)(C)C)c(O)c(C(C)(C)C)c1 [BHT, butylated hydroxytoluene, reference compound] ?
Response line: 89 µM

Prompt line: Consider next the molecule CC1=C(C(=O)OCc2ccccc2)C(c2ccc(F)cc2)C(C#N)=C(N)O1 (stereo not shown) in the same way.
Response line: 274 µM

Prompt line: Same read-out for CC1=C(C(=O)OCc2ccccc2)C(c2ccccc2Cl)C(C#N)=C(N)O1 (stereo not shown) ?
Response line: 801 µM

Prompt line: Follow-up entry: COc1cc(C2C(C#N)=C(N)OC(C)=C2C(=O)OCc2ccccc2)cc(OC)c1OC (stereo not shown)
Response line: 149 µM

Prompt line: How about this molecule: CCOC(=O)C1=C(C)OC(N)=C(C#N)C1c1cccc(O)c1Cl (stereo not shown)
Response line: 72 µM

Prompt line: Follow-up item: COc1cccc(C2C(C#N)=C(N)OC(C)=C2C(=O)OCc2ccccc2)c1[N+](=O)[O-] (stereo not shown)
Response line: 1230 µM

Prompt line: Another: COc1cc(OC)c(C2C(C#N)=C(N)Oc3n[nH]c(C)c32)c(OC)c1 (stereo not shown)
Response line: 467 µM

Prompt line: Same again, this time with CCOC(=O)C1=C(C)OC(N)=C(C#N)C1c1cccc(OC)c1[N+](=O)[O-] (stereo not shown)
Response line: 1200 µM

Prompt line: Same for COC(=O)C1=C(C)OC(N)=C(C#N)C1c1cccc(O)c1Cl (stereo not shown)
Response line: 398 µM

Prompt line: Field entry: CC1=C(C(=O)OCc2ccccc2)C(c2ccc(Cl)cc2Cl)C(C#N)=C(N)O1 (stereo not shown)
Response line: 506 µM

Prompt line: Would you mind doing COC(=O)C1=C(C)OC(N)=C(C#N)C1c1ccccc1C(=O)O (stereo not shown) as well?
Response line: 827 µM

Prompt line: Moving on to the next molecule: CCOC(=O)C1=C(C)OC(N)=C(C#N)C1c1c(OC)cc(OC)cc1OC (stereo not shown)
Response line: 221 µM

Prompt line: Try this molecule next: CCOC(=O)C1=C(C)OC(N)=C(C#N)C1c1cccc(-c2ccccc2)c1 (stereo not shown)
Response line: 305 µM

* * *

For each entry below, report its IZ (mm) value.
- Tested on: P. aeruginosa (ATCC 27853)
- Experiment notes: Antibacterial agar diffusion method (inhibition zone)
- Format: cell-based
The figure you give is taken to be in mm; do not add the unit.

Prompt line: So what does the record say about IZ (mm) for CC1=C(C(=O)OCc2ccccc2)C(c2ccccc2Cl)C(C#N)=C(N)O1 (stereo not drawn) [4l] ?
Response line: 4.5

Prompt line: Try COc1ccc(C2C(C#N)=C(N)OC(C)=C2C(=O)OCc2ccccc2)cc1 (stereo not drawn) [4j] next.
Response line: 14.5

Prompt line: Now the compound CC1=C(C(=O)OCc2ccccc2)C(c2ccc(F)cc2)C(C#N)=C(N)O1 (stereo not drawn) [4i]
Response line: 8.5

Prompt line: How about this compound: COC(=O)C1=C(C)OC(N)=C(C#N)C1c1ccccc1C(=O)O (stereo not drawn) [4a]
Response line: 5.5

Prompt line: Try CC1=C(C(=O)OCc2ccccc2)C(c2ccc(Cl)cc2Cl)C(C#N)=C(N)O1 (stereo not drawn) [4m] next.
Response line: 9.5

Prompt line: How about CC1(C)S[C@@H]2[C@H](NC(=O)[C@H](N)c3ccccc3)C(=O)N2[C@H]1C(=O)O [Ampicillin, reference compound] ?
Response line: 21.5

Prompt line: What about CCOC(=O)C1=C(C)OC(N)=C(C#N)C1c1cccc(-c2ccccc2)c1 (stereo not drawn) [4e] ?
Response line: 4.5

Prompt line: Try the compound CCOC(=O)C1=C(C)OC(N)=C(C#N)C1c1cccc(O)c1Cl (stereo not drawn) [4g]
Response line: 13.5

Prompt line: Input CCOC(=O)C1=C(C)OC(N)=C(C#N)C1c1c(OC)cc(OC)cc1OC (stereo not drawn) [4h]
Response line: 4.5
